Tested on: F2002 cell line
Assay: Compound was tested in vitro for cytotoxic activity against HCMV (Human cytomegalovirus) in Flow 2002 cells
Assay type: functional
quantity-name: CC50 (µg/mL)
Record the value in µg/mL, omitting the unit from your answer.

Dear colleague, I am looking for the recorded CC50 of the following compound: Nc1ccn(C2COCC2O)c(=O)n1 (stereo unspecified)
100

Dear colleague, I am looking for the recorded CC50 of the following compound: O=c1ccn([C@@H]2COCC2OCP(=O)(O)O)c(=O)[nH]1 (stereo partly specified)
100

We next turn to a different compound, shown below.
Dear colleague, I am looking for the recorded CC50 of the following compound: Nc1ccn([C@@H]2COCC2O)c(=O)n1 (stereo partly specified)
100

---

Tested on: F2002 cell line
Assay: Compound was tested in vitro for inhibitory activity against HCMV (Human cytomegalovirus) in Flow 2002 cells
Assay type: functional, cell-based
quantity-name: IC50

Dear colleague, I am looking for the recorded IC50 of the following compound: O=c1ccn(C2COCC2OCP(=O)(O)O)c(=O)[nH]1 (stereo unspecified)
> 100 µg/mL

Dear colleague, I am looking for the recorded IC50 of the following compound: Nc1ccn([C@@H]2COCC2O)c(=O)n1 (stereo partly specified)
3 µg/mL

Next:
Dear colleague, I am looking for the recorded IC50 of the following compound: O=c1ccn([C@@H]2COCC2OCP(=O)(O)O)c(=O)[nH]1 (stereo partly specified)
> 100 µg/mL

Dear colleague, I am looking for the recorded IC50 of the following compound: Nc1ccn(C2COCC2O)c(=O)n1 (stereo unspecified)
> 100 µg/mL

Dear colleague, I am looking for the recorded IC50 of the following compound: Nc1ncnc2c1ncn2[C@@H]1COCC1O (stereo partly specified)
> 100 µg/mL

Dear colleague, I am looking for the recorded IC50 of the following compound: O=c1ccn([C@@H]2COCC2O)c(=O)[nH]1 (stereo partly specified)
> 100 µg/mL

---

System: F2002 cell line
Experiment: Compound was tested in vitro for cytotoxic activity against HCMV (Human cytomegalovirus) in Flow 2002 cells
Assay type: functional
Reported CC50 is given for each of the following compounds.

Worked set:
Dear colleague, I am looking for the recorded CC50 of the following compound: Nc1ncnc2c1ncn2[C@@H]1COCC1O (stereo partly drawn)
> 100 µg/mL

Dear colleague, I am looking for the recorded CC50 of the following compound: O=c1ccn(C2COCC2OCP(=O)(O)O)c(=O)[nH]1 (stereo not drawn)
> 100 µg/mL

Next:
Dear colleague, I am looking for the recorded CC50 of the following compound: O=c1ccn([C@@H]2COCC2O)c(=O)[nH]1 (stereo partly drawn)
> 100 µg/mL

Data origin, for the record: ChEMBL document CHEMBL1130572
